# System: T47D
# ASSAY COMMENT: Cytotoxicity screening, SRB assay, T47D
# Assay type: cell-based, human
# CONDITION PARAMETERS: Homo sapiens, T47D, 48 h
PARAMETER MEASURED: IC50 (µg/mL)
Give a bare numeral; the unit µg/mL is implied.

Examples with answers:
- COMPOUND: "N#Cc1c(-c2cccs2)cc(-c2ccco2)[nH]c1=O"
  SYSTEM UNDER TEST: "T47D"
  PARAMETER MEASURED: "IC50"
  VALUE UNITS: "µg/mL"
  VALUE REPORTED: 4.7
- COMPOUND: "N#Cc1c(-c2cccs2)cc(-c2ccco2)nc1NN"
  SYSTEM UNDER TEST: "T47D"
  PARAMETER MEASURED: "IC50"
  VALUE UNITS: "µg/mL"
  VALUE REPORTED: 4.9
- COMPOUND: "N#Cc1c(-c2cccs2)cc(-c2ccco2)nc1OCC(=O)N/N=C/c1ccc([N+](=O)[O-])cc1"
  SYSTEM UNDER TEST: "T47D"
  PARAMETER MEASURED: "IC50"
  VALUE UNITS: "µg/mL"
  VALUE REPORTED: 49.5
- COMPOUND: "N#Cc1c(-c2cccs2)cc(-c2ccco2)nc1OCC(=O)N/N=C1/C(=O)Nc2ccccc21"
  SYSTEM UNDER TEST: "T47D"
  PARAMETER MEASURED: "IC50"
  VALUE UNITS: "µg/mL"
  VALUE REPORTED: 17
- COMPOUND: "Oc1n[nH]c2nc(-c3ccco3)cc(-c3cccs3)c12"
  SYSTEM UNDER TEST: "T47D"
  PARAMETER MEASURED: "IC50"
  VALUE UNITS: "µg/mL"
  VALUE REPORTED: 7.5
- COMPOUND: "N#Cc1c(-c2cccs2)cc(-c2ccco2)nc1Cl"
  SYSTEM UNDER TEST: "T47D"
  PARAMETER MEASURED: "IC50"
  VALUE UNITS: "µg/mL"
  VALUE REPORTED: 49.4

Need IC50 of `Clc1nc(-c2ccco2)cc(-c2cccs2)c1-c1nnn[nH]1` , thanks.
8.9

Give the measured IC50 of `CCOC(=O)COc1nc(-c2ccco2)cc(-c2cccs2)c1C#N` .
25.5

Report IC50 for `c1coc(-c2cc(-c3cccs3)n3cnnc3n2)c1` please.
11.5

* * *

# SYSTEM UNDER TEST: EGFR (T790M) (Homo sapiens, UniProt P00533, T790M)
# Sequence (P00533 25-1210 T790M): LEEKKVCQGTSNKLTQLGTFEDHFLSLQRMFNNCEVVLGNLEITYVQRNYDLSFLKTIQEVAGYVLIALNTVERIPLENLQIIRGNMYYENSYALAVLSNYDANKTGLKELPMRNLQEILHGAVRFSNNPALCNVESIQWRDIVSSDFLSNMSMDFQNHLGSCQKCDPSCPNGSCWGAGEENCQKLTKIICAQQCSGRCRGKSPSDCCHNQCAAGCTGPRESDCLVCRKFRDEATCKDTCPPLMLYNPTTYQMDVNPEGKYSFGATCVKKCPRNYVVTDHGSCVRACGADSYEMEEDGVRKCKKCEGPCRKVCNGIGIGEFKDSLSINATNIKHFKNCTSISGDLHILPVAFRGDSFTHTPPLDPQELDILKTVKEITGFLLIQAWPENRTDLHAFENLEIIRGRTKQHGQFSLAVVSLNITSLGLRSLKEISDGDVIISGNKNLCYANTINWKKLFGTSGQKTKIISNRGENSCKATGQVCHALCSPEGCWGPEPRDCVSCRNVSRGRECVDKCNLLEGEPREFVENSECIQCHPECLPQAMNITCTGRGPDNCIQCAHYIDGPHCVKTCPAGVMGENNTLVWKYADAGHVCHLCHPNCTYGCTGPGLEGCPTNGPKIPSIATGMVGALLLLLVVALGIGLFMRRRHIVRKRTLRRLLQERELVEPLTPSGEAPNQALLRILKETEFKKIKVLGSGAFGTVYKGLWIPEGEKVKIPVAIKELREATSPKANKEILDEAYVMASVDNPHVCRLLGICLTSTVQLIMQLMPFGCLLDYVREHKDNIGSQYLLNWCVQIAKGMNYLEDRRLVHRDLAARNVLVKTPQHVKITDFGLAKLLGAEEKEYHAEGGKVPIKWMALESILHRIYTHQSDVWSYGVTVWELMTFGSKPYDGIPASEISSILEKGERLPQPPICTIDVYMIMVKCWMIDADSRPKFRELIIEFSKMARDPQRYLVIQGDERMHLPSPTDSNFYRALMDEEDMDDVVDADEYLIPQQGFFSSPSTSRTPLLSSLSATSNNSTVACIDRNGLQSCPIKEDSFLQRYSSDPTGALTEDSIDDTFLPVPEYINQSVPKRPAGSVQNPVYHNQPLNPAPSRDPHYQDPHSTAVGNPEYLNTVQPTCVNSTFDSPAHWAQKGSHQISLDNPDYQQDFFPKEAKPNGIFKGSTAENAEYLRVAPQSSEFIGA
# ASSAY COMMENT: EGFR kinase (T790M) inhibition assay, Kinase-Glo MAX
List of pIC50 values.
Keep it numeric: pIC50 is minus log10 of the concentration in mol/L.

- MOLECULE: "Oc1n[nH]c2nc(-c3ccco3)cc(-c3cccs3)c12 [Compound 8]"
  pIC50: 7.57

Lab note: next molecule to report on.
State the recorded pIC50 for this entry: N#Cc1c(-c2cccs2)cc(-c2ccco2)[nH]c1=O [Compound 14]
6.81

* * *

# System: HEPG2
# ASSAY COMMENT: Cytotoxicity screening, SRB assay, HEPG2
# Format: cell-based, human
# CONDITION PARAMETERS: Homo sapiens, HepG2, 48 h
For each record, check the reported IC50: if it is below 7 µg/mL write condition met, else write condition not met.

Illustrative cases are given below, each with its answer.
- MOLECULE: "c1coc(-c2cc(-c3cccs3)n3cnnc3n2)c1"
  LABEL VALUE: "condition not met"
- MOLECULE: "N#Cc1c(-c2cccs2)cc(-c2ccco2)nc1Cl"
  LABEL VALUE: "condition not met"
- MOLECULE: "N#Cc1c(-c2cccs2)cc(-c2ccco2)[nH]c1=O"
  LABEL VALUE: "condition met"
- MOLECULE: "Clc1nc(-c2ccco2)cc(-c2cccs2)c1-c1nnn[nH]1"
  LABEL VALUE: "condition not met"
- MOLECULE: "N#Cc1c(-c2cccs2)cc(-c2ccco2)nc1OCC(=O)N/N=C1/C(=O)Nc2ccccc21"
  LABEL VALUE: "condition met"
- MOLECULE: "N#Cc1c(-c2cccs2)cc(-c2ccco2)nc1OCC(=O)NN"
  LABEL VALUE: "condition not met"
- MOLECULE: "C1=C(c2ccco2)n2c(nc3ccccc32)SC1c1cccs1 (stereo not shown)"
  LABEL VALUE: "condition not met"
- MOLECULE: "Oc1n[nH]c2nc(-c3ccco3)cc(-c3cccs3)c12"
  LABEL VALUE: "condition met"
- MOLECULE: "N#Cc1c(-c2cccs2)cc(-c2ccco2)nc1NN"
  LABEL VALUE: "condition met"

Please let me know if `c1coc(-c2cc(-c3cccs3)n3nnnc3n2)c1` shows IC50 below 7 µg/mL.
condition not met
